Assayed target: isolated recombinant JAK2 kinase domain (Homo sapiens, UniProt O60674)
Construct: The activity of the isolated recombinant JAK1 and JAK2 kinase domain was measured
Sequence (O60674 849-1124 limits assumed): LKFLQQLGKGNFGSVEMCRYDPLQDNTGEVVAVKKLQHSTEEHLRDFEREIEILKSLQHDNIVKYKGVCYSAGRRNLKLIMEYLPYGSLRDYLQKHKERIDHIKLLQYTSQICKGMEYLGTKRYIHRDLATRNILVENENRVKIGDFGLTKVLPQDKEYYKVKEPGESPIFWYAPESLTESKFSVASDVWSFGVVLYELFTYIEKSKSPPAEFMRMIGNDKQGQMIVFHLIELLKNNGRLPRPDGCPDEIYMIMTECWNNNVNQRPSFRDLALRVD
Procedure details: JAK2 enzyme assay (Caliper LabChip, Ki)
Condition details: 25 μM ATP
Protocol: JAK Enzyme Assays were Carried Out as Follows: The activity of the isolated recombinant JAK1 and JAK2 kinase domain was measured by monitoring phosphorylation of a peptide derived from JAK3 (Val-Ala-Leu-Val-Asp-Gly-Tyr-Phe-Arg-Leu-Thr-Thr, fluorescently labeled on the N-terminus with 5-carboxyfluorescein) using the Caliper LabChip® technology (Caliper Life Sciences, Hopkinton, Mass.). […]
Quantity measured: Ki (pM)

Use these answered entries as a reference point.
CSc1ccc(OC(F)F)c(-c2nn(CC(=O)N3CCC(N4CCn5ccnc5C4)CC3)cc2NC(=O)c2cnn3cccnc23)c1 [Example 73] : 250
O=C(Nc1cn(CC(=O)N2CCN(C3CCOCC3)CC2)nc1-c1cc(SC2CC2)ccc1OC(F)F)c1cnn2cccnc12 [Example 168] : 460
O=C(Nc1cn(CC(=O)N2CCN(CC3CCOCC3)CC2)nc1-c1cc(SC2CC2)ccc1OC(F)F)c1cnn2cccnc12 [Example 165] : 670
CC(C)Sc1ccc(OC(F)F)c(-c2n[nH]cc2NC(=O)c2cnn3cccnc23)c1 [Example 101] : 93
COCC(=O)N1CCN(CC2CCN(C(=O)Cn3cc(NC(=O)c4cnn5cccnc45)c(-c4cc(SC)ccc4OC(F)F)n3)CC2)CC1 [Example 82] : 410

[A] CC(C)Sc1ccc(OC(F)F)c(-c2nn(CC(=O)N3CCC(N(C)C4COC4)CC3)cc2NC(=O)c2cnn3cccnc23)c1 [Example 110]
[B] CSc1ccc(OC(F)F)c(-c2nn(CC(=O)N3CCC(N4CCn5nccc5C4)CC3)cc2NC(=O)c2cnn3cccnc23)c1 [Example 79]
When A and B are compared, which has the higher number for Ki? State your choice using its label. A
(A: 1000 pM, B: 440 pM)

[a] CC(=O)N1CCN(CC2CCN(C(=O)Cn3cc(NC(=O)c4cnn5cccnc45)c(-c4cc(SC(C)C)ccc4OC(F)F)n3)CC2)CC1 [Example 157]
[b] CSc1ccc(OC(F)F)c(-c2nn(CC(=O)N3CC=CCC3)cc2NC(=O)c2cnn3cccnc23)c1 [Example 67]
[c] CSc1ccc(OC(F)F)c(-c2nn(CC(=O)N3CCC(N4CCOC[C@@H]4C)CC3)cc2NC(=O)c2cnn3cccnc23)c1 [Example 61]
Ordering: ascending Ki. State the ranking by listing the labels in the requested order. b, c, a

[1] O=C(Nc1cn(CC(=O)N2CCC(CN3CCOCC3)CC2)nc1-c1cc(SC2CC2)ccc1OC(F)F)c1cnn2cccnc12 [Example 162]
[2] CSc1ccc(OC(F)F)c(-c2nn([C@H]3CCCNC3)cc2NC(=O)c2cnn3cccnc23)c1 [Example 9]
Param metric = Ki; output whichever of 1 , 2 has the minimum value. Answer by stating the label of the chosen item. 2

[a] CSc1ccc(OC(F)F)c(-c2nn(CC(=O)N3CCC(N(CCN4CCOCC4)C4COC4)CC3)cc2NC(=O)c2cnn3cccnc23)c1 [Example 92]
[b] CC(C)Sc1ccc(OC(F)F)c(-c2nn(Cc3cn(C4CCN(C5CCOC5)CC4)nn3)cc2NC(=O)c2cnn3cccnc23)c1 (stereo not drawn) [Example 156]
Hi, I'm comparing two records. Which one has the lower Ki, a or b ? API: response body contains the label of the selected item. b
(b: 290 pM, a: 770 pM)
